Values from patent US20250361230A1

- Test target: LATS1 (Homo sapiens, UniProt O95835)
- Sequence (O95835 1-1130): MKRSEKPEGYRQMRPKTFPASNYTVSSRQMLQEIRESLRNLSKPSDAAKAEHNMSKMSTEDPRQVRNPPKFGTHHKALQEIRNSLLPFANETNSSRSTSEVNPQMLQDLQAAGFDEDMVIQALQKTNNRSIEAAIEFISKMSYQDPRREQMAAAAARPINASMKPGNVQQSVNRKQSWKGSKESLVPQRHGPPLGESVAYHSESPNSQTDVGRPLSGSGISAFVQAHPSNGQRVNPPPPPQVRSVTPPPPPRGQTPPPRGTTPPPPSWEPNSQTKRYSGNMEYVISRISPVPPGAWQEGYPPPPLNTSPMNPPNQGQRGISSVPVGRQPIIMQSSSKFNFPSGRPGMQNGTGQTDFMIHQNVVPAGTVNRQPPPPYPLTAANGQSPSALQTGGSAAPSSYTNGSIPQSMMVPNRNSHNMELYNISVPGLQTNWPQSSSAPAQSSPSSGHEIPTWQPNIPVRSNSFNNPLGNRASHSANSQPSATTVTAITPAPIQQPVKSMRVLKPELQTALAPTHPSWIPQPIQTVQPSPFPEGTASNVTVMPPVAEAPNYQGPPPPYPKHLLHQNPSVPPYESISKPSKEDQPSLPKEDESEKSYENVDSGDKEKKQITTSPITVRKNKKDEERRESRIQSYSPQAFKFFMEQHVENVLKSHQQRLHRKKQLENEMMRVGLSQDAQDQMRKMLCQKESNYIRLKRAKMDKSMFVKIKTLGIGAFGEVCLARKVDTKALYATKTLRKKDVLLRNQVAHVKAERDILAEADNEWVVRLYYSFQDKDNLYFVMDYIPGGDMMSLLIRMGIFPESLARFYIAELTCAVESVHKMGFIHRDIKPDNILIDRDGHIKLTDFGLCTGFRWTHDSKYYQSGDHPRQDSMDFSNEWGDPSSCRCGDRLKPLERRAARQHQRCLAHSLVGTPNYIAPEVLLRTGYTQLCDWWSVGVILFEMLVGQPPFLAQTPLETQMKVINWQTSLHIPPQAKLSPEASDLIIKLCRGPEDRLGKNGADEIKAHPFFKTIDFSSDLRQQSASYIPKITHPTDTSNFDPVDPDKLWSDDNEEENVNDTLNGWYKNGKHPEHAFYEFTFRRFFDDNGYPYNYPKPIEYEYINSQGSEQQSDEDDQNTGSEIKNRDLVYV
- Test description: RBC HotSpot kinase assay (33P-ATP, P81 filter-binding), LATS1
- Format: biochemical
- Conditions used: biochemical kinase inhibition; read-out: LATS1 IC50
# if measured IC50 < 7 nM: yes (1)  # else: no (0)

// below: answered molecules
Cc1cc(-c2ccnc3[nH]cc(C#N)c23)ccc1[C@@]1(O)[C@H](C)CN(C(=O)[C@@H](CO)N(C)C)C[C@@H]1C: yes (1)
Cc1cc(-c2ccnc3[nH]cc(C#N)c23)cc(F)c1[C@@]1(O)[C@H](C)CN(C(=O)[C@H](N)CO)C[C@@H]1C [Compound 2007]: no (0)
Cc1cc(-c2ccnc3[nH]cc(C#N)c23)cc(F)c1[C@@]1(O)[C@H](C)CN(C(=O)CN)C[C@@H]1C: yes (1)
CN[C@@H](CO)C(=O)N1C[C@@H](C)[C@](O)(c2c(C)cc(-c3ccnc4[nH]cc(C#N)c34)cc2F)[C@@H](C)C1: yes (1)
Cc1cc(-c2ccnc3[nH]cc(C#N)c23)ccc1[C@@]1(O)[C@H](C)CN(C2CCS(=O)(=O)CC2)C[C@@H]1C: yes (1)

Input: Lab note: confirm whether the reported IC50 for this molecule is below 7 nM, equality not counting. molecule: Cc1cc(-c2ccnc3[nH]cc(C#N)c23)cc(F)c1[C@@]1(O)[C@H](C)CN(C(=O)[C@@H](CO)N(C)C)C[C@@H]1C
Output: yes (1)

Input: Lab note: confirm whether the reported IC50 for this molecule is below 7 nM, equality not counting. molecule: Cc1cc(-c2ccnc3[nH]cc(C#N)c23)cc(F)c1[C@@]1(O)[C@H](C)CN(C(=O)[C@@H](C)N)C[C@@H]1C
Output: yes (1)
